target: MAO-B (Homo sapiens); construct: purchased Sigma–Aldrich; test: MAO-B reversibility assay (pre-incubation times); format: biochemical; details: 0, 15, 30 min pre-incubation at […] IC50
Sequence (P27338 whole entry): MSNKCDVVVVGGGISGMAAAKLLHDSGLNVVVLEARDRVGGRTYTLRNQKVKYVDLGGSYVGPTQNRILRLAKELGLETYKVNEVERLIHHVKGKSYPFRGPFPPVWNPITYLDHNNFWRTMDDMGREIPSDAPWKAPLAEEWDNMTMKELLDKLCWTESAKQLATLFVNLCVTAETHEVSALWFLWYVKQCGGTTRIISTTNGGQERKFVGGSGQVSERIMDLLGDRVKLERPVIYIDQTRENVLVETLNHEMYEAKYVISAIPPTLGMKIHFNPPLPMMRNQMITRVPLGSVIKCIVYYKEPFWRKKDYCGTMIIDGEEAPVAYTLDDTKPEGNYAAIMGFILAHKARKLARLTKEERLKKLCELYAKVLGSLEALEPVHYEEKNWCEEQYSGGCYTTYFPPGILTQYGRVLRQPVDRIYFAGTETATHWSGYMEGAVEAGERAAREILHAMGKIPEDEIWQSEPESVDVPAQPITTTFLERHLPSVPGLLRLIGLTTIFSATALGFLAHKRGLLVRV

- MOLECULE: "C#CCNCCc1c[nH]c2ccc(OC(=O)C=Cc3ccccc3)cc12 [Compound 11]"
  MAO-B inhibition reversibility: "reversible inhibition"
- MOLECULE: "C#CCN(CC#C)CCc1c[nH]c2ccc(OC(=O)C=Cc3ccccc3)cc12 [Compound 14]"
  MAO-B inhibition reversibility: "reversible inhibition"
- MOLECULE: "C#CC(=O)NCCc1c[nH]c2ccc(OC(=O)C=Cc3ccccc3)cc12 [Compound 17]"
  MAO-B inhibition reversibility: "reversible inhibition"
